Field: p-STAT5 inhibition (%), IL-15 induced, KHYG-1 NK cells, flow cytometry. Provide a value for each of the binders that follow.
- target.under.test: T1, human γc on cells (KHYG-1, Ramos, HPB-ALL, Jurkat, PBMC) (human) (UniProt P31785)
- T1 sequence (looked up): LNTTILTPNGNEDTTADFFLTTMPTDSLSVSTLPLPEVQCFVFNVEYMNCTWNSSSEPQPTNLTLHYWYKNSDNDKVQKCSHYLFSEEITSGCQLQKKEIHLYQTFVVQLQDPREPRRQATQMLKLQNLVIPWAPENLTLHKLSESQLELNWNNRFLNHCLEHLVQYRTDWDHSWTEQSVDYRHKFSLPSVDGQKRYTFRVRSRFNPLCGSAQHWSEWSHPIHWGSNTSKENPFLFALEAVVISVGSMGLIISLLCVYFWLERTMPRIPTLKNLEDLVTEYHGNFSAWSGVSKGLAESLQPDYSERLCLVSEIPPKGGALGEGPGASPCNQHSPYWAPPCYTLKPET
- assay.protocol: cell-based or functional assay
Numbers only, in %.

SM-05I anti-γc ScFv (scFv, part only; not given: linker and E-tag, not shown: small tags and cut ends) scFv (part 1 of 2), part: QVQLQQSGAELAKPGASVKLSCKASGYTFTEYTMHWVKQSHGESLDWIGGIDPNTGGATYNQRFKGKATMTVDKSSSTAYMEFRSLTSEDSAVYYCARRRRYYGYALDNWGQGTSVTVSS scFv (part 2 of 2), part: DVLMTQTPLSLPVSLGDQASISCRSSQSIVHSNGNTYLEWYLQKPGQSPKLLIYKVSNRFSGVPDRFSGSGSGTDFTLKISRVEAEDLGVYYCFQDSHVPFTFGSGTKLEIKR :: 38.9
SM-05C anti-γc ScFv (scFv, part only; not given: linker and E-tag, not shown: small tags and cut ends) scFv (part 1 of 2), part: QVQLQQSGPELVKPGASVKIFCKTSGYTFTEYTMHWVKQSHGESLEWIGGIDPNTGGATYNQKFKGKATLTADKSSSTAYMELRSLTSEDSAVYYCARRRRYYGYAMDYWGQGTSVTVSS scFv (part 2 of 2), part: DVVMTQTPLSLPVSLGDQASISCRSSQSLVHSNGNTYLHWYLQKPGQSPKLLIYKVSNRFSGVPDRFSGSGSGTDFTLKISRVEAEDLGIYYCFQDSHVPFTFGSGTKLEIKR :: 46

Turning now to a further binder:
Please fill in: p-STAT5 inhibition (%), IL-15 induced, KHYG-1 NK cells, flow cytometry reported for SM-05J anti-γc ScFv (scFv, part only; not given: linker and E-tag, not shown: small tags and cut ends) scFv (part 1 of 2), part: EVQLQQSGPELVKPGASVKISCKTSGYTFTEYTMHWVKQSHGKSLEWIGGIDPYNGGITYNQRFKGKATLTVDKSSSTAYMELRSLTSEDSAVYYCARRRLYYGYALDYWGQGTSVTVSS scFv (part 2 of 2), part: DVVMTQTPLSLPVSLGDQASISCRSSQSIVHSNGNTYLEWYLQKPGQSPKLLIYKVSNRFSGVPDRFSGSGSGTDFTLKISRVEAEDLGVYYCFQGSHVPFTFGSGTKLEIKR = 42.7
